meta.source: the supplement of paper PMC8967900

Can you tell me selective drug sensitivity score for the items I'm about to list?
- Tested on: NALM-6;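 also: ALL cell lines in 384-well plates, five doses spanning 10,000-fold, each plate scaled between vehicle and 100 µmol/L benzalkonium chloride controls, sDSS an adapted area-under-curve metric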
- protocol notes: selective drug sensitivity score (sDSS, relative to normal bone marrow) (sDSS (score)); higher = more potent and effective on the cell line relative to normal bone marrow cells
- condition description: 72 h
Answers are plain numbers.

// worked examples, selective drug sensitivity score included
>>> value_observed("Nc1nccc(-c2c(-c3ccc(F)cc3)ncn2C2CCCCC2)n1 (top concentration 10000 nM)")
0
>>> value_observed("Cc1ccc(NC(=O)c2ccc(CN3CC[C@H](N(C)C)C3)c(C(F)(F)F)c2)cc1Nc1nccc(-c2cncnc2)n1 [Bafetinib] (top concentration 1000 nM)")
0
>>> value_observed("CCCc1cc(C)[nH]c(=O)c1CNC(=O)c1cc(-c2ccnc(N3CCN(C)CC3)c2)cc2c1cnn2C(C)C [GSK343] (top concentration 1000 nM)")
0
>>> value_observed("Cc1cc(Nc2cc(N3CCN(C)CC3)nc(Sc3ccc(NC(=O)C4CC4)cc3)n2)n[nH]1 [Tozasertib] (top concentration 10000 nM)")
16.2
>>> value_observed("Cc1ccc(=O)n(-c2ccccc2)c1 [Pirfenidone] (top concentration 10000 nM)")
0

Your task in this section: give selective drug sensitivity score for each listed record.
1. CNc1nc(Nc2cn(C(C)(C)C#N)nc2C)ncc1C(F)(F)F [GNE-0877] (top concentration 1000 nM)
2. C[C@H]1Oc2cc(cnc2N)-c2c(nn(C)c2C#N)CN(C)C(=O)c2ccc(F)cc21 (top concentration 1000 nM)
3. CCOc1cc2ncc(C#N)c(Nc3ccc(OCc4ccccn4)c(Cl)c3)c2cc1NC(=O)/C=C/CN(C)C [Neratinib] (top concentration 1000 nM)
4. O=C(c1ccc(OCCN2CCCCC2)cc1)c1c(-c2ccc(O)cc2)sc2cc(O)ccc12 [Raloxifene] (top concentration 10000 nM)
5. CC1=C(/C=C/C(C)=C/C=C/C(C)=C/C(=O)O)C(C)(C)CCC1 [Tretinoin] (top concentration 10000 nM)

1. 0
2. -0.72
3. 0.48
4. -0.88
5. -2.4
